# PROCEDURE_TEXT: Three-way crossover PK of ARV-110 API and ASD compositions, fed beagle dogs
# DETAILS: in vivo, 50 mg API per dog oral, fed condition, geometric mean
MEASURED_PARAMETER: AUC(0-inf) (ng·h/mL)
Field: numeric (ng·h/mL). Do not append units.

// AUC(0-inf) lookup, key: N#Cc1ccc(O[C@H]2CC[C@H](NC(=O)c3ccc(N4CCC(CN5CCN(c6cc7c(cc6F)C(=O)N(C6CCC(=O)NC6=O)C7=O)CC5)CC4)nn3)CC2)cc1Cl (stereo partly shown) [ARV-110]
3000

* * *

# PROCEDURE_TEXT: PK of ARV-471 API high dose, fasted vs fed beagle dogs
# Assay type: in vivo
# DETAILS: beagle, dog, plasma, po, 200 mg, API capsule 200 mg oral, fasted condition, geometric mean
MEASURED_PARAMETER: Cmax (ng/mL)
Field: numeric (ng/mL). Do not append units.

// Cmax lookup, key: O=C1CC[C@H](N2Cc3cc(N4CCN(CC5CCN(c6ccc([C@@H]7c8ccc(O)cc8CC[C@@H]7c7ccccc7)cc6)CC5)CC4)ccc3C2=O)C(=O)N1
415
